tested_target: T1, RXFP1 (LGR7) receptor, on stably transfected HEK-293T cells (UniProt Q9HBX9 1-757, limits assumed)
T1 sequence (looked up): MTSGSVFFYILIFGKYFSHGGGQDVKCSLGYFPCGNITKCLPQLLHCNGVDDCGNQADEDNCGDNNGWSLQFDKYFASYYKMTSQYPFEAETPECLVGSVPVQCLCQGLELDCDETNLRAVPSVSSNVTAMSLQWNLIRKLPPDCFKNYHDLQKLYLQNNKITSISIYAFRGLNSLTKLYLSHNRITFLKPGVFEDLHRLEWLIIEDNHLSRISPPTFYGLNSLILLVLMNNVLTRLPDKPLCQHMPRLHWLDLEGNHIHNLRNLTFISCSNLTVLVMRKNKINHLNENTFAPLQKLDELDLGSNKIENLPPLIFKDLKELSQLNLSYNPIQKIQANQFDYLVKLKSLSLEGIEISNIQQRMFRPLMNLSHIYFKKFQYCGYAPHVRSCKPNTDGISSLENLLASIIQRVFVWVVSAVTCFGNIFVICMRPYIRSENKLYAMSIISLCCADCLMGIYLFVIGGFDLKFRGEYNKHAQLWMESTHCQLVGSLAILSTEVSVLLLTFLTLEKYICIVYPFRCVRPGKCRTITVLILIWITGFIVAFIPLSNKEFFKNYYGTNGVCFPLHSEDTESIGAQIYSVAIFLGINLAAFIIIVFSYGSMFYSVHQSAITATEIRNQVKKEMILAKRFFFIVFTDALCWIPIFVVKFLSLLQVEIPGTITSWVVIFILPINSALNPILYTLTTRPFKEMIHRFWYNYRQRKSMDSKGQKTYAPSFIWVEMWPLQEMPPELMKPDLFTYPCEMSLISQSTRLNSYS
assay_name: cell-based or functional assay
Ends that are not written are not given here.
value_type: cAMP pEC50 (log M)
The response must be a number in log M with no trailing unit.

>>> observed("native H2 relaxin (human relaxin-2, heterodimer of A chain and B1-29 B chain) (ligand, disulfide (positions not given here); ends not checked; also: three disulfides (two inter-chain, one within A chain), places not given here, mature; Two chains linked by three disulfide bonds (two inter-chain, one within the A chain); also called native human relaxin-2; Eu^3+-labelled H2 relaxin (tracer form)) chain 1: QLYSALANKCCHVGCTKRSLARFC chain 2: DSWMEEVIKLCGRELVRAQIAICGMSTWS")
10.5

Lab note: next binder to report on.
Would you kindly share the measured cAMP pEC50 for Ac-VIKLSGRELVRAQIAISGMSTWSKKKK-NH2 (AcB7-29 C11.23S with KKKK at the C-terminus in place of KRSL) [KKKK (AcB7-29 C11.23S)] ?
5.81
